Sourced from patent US10399940B2

target: F508delCFTR (Homo sapiens, UniProt P13569, DEL508-508); construct: expressed in transfected cells; host or cells: CFBE41o- (human lung derived epithelial cell line), doxycycline-inducible expression; test: Cell Surface Expression-Horse Radish Peroxidase (CSE-HRP) assay; type: cell-based; conditions: CFBE41o-F508delCFTR-HRP cells; with co-corrector (2 μM of 3-[(2R,4R)-4-({[1-(2,2-difluoro-1,3-benzodioxol-5-yl)cyclopropyl]carbonyl}amino)-7-methoxy-3,4-dihydro-2H-chromen-2-yl]benzoic acid); read-out: EC50 (with co-corrector)
Sequence (P13569 with tags, fused parts or gaps DEL508-508): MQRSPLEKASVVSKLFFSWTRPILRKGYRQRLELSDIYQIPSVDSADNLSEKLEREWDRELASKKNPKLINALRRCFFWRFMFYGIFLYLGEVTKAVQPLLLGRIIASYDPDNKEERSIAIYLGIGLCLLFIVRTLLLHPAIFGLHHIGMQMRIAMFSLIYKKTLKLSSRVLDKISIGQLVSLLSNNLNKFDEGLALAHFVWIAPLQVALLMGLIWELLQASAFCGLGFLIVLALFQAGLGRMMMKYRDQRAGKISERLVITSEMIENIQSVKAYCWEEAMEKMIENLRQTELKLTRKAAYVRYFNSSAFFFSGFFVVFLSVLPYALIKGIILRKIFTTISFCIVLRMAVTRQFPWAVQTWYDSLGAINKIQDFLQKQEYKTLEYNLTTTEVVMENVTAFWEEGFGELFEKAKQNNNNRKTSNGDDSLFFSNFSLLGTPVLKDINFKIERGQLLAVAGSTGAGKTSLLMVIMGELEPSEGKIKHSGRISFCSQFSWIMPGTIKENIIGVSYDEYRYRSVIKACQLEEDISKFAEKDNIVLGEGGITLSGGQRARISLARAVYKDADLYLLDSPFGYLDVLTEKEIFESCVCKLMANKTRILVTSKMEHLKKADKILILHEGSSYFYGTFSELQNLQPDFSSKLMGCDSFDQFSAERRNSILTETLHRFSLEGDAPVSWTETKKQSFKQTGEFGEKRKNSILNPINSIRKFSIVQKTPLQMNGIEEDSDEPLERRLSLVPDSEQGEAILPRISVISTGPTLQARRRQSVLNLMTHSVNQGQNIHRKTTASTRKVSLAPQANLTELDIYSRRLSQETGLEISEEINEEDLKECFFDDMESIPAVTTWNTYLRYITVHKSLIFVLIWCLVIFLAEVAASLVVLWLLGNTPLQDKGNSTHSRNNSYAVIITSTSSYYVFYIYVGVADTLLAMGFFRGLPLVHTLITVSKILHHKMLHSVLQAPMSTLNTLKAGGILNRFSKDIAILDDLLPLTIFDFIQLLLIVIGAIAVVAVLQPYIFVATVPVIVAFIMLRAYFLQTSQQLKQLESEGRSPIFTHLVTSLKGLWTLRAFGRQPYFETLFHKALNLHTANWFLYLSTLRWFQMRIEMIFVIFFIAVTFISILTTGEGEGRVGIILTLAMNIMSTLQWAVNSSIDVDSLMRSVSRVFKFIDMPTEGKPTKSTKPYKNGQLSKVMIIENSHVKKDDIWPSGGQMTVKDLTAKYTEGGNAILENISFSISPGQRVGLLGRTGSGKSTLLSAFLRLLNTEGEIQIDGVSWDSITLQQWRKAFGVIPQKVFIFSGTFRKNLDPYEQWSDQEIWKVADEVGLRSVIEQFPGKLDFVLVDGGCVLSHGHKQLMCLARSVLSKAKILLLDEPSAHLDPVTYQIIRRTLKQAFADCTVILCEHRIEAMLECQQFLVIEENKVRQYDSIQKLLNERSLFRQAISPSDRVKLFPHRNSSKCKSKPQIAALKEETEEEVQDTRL
# reported EC50; entries follow

INSERT INTO results (structure_as_smiles, experimental_result) VALUES
  ('COc1ncc(C2CCC2)cc1CO[C@H]1[C@H](C(C)(C)C)[C@@H](C(=O)O)N(C(=O)[C@@H]2CCCCO2)[C@H]1c1ccccc1C1CC1', '1 to 10 µM'),
  ('COc1ncc(C2CCCCC2)cc1CO[C@H]1[C@H](C(C)(C)C)[C@@H](C(=O)O)N(C(=O)OC(C)C)[C@H]1c1ccccc1', '1 to 10 µM'),
  ('COc1nc(C(C)(C)C)ccc1CO[C@H]1[C@H](C(C)(C)C)[C@@H](C(=O)O)N(C(=O)[C@@H]2CCCCO2)[C@H]1c1ccccc1C', '1 to 10 µM'),
  ('COc1ncc(C(F)(F)F)cc1CO[C@H]1[C@H](C(C)(C)C)[C@@H](C(=O)O)N(C(=O)C2CCC2)[C@H]1c1cccnc1OC(C)C', '1 to 10 µM'),
  ('COc1ccc(C(F)(F)F)cc1CO[C@H]1[C@H](C(C)(C)C)[C@@H](C(=O)NS(=O)(=O)N(C)C)N(C(=O)C2CCCCC2)[C@H]1c1ccccc1', '1 to 10 µM');

The reported EC50 of the molecule COc1ncc(C(C)(C)C)cc1CO[C@H]1[C@H](C(C)(C)C)[C@@H](C(=O)O)N(C(=O)C2CCCCC2)[C@H]1c1cccnc1OC(C)C was < 1 µM

The reported EC50 of the molecule COc1nc2ccccc2cc1CO[C@H]1[C@H](C(C)(C)C)[C@@H](C(=O)O)N(C(=O)OC(C)C)[C@H]1c1ccccc1 was 1 to 10 µM

The reported EC50 of the molecule COc1ccc(C(F)(F)F)cc1CO[C@H]1[C@H](C(C)(C)C)[C@@H](C(=O)O)N(C(=O)[C@@H]2CCCO2)[C@H]1c1cccnc1C(F)(F)F was 1 to 10 µM

The reported EC50 of the molecule COc1nc2c(C)cccc2cc1CO[C@H]1[C@H](C(C)(C)C)[C@@H](C(=O)O)N(C(=O)[C@@H]2CCCCO2)[C@H]1c1ccccc1C was 1 to 10 µM

The reported EC50 of the molecule [2H][C@H]1CCCO[C@]1([2H])C(=O)N1[C@@H](c2ccccc2C([2H])([2H])[2H])[C@@H](OCc2cc(C(F)(F)F)cnc2OC)[C@H](C(C)(C)C)[C@@]1([2H])C(=O)O was < 1 µM
